System Under Test: recombinant human OX40 (Acro Biosystems, cat. no. OXO-H5224) (human) (UniProt P43489)
Sequence (P43489 29-216 limits assumed): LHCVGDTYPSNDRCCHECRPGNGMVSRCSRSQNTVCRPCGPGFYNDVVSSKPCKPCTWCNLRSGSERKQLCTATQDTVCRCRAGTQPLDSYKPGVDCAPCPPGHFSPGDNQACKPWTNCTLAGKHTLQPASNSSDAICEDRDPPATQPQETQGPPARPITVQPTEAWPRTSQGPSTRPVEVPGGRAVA
Assay Text: BLI cross-block; competitor (immobilized 1st Ab): IgG1-CD134-MEDI0562
Recorded Metric: corrected association response (nm)
Give the value in nm but do not write nm after it.

• IgG1-CD134-MEDI0562 (antibody, INN chains, looked up, V domains shown, IgG1) VH: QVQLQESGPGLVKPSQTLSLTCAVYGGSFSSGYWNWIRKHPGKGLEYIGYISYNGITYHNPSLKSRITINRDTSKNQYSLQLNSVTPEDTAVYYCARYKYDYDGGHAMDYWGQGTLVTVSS VL: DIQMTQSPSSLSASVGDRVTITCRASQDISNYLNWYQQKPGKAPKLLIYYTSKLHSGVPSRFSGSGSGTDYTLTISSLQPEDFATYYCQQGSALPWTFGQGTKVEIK = 0
• IgG1-CD134-RG7888 (antibody, INN chains, looked up, V domains shown, IgG1) VH: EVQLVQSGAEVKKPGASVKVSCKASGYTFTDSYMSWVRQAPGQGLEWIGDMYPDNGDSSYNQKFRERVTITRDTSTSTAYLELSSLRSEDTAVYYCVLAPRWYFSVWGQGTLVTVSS VL: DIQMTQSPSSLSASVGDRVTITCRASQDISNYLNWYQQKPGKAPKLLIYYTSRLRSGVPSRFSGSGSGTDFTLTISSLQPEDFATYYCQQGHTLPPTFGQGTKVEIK = 0.02

// corrected association response lookup, key: IgG1-CD134-ABBV368 (antibody, INN chains, looked up, V domains shown, IgG1) VH: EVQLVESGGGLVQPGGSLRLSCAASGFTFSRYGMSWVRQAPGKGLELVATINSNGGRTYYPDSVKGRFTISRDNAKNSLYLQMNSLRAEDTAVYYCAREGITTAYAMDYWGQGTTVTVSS VL: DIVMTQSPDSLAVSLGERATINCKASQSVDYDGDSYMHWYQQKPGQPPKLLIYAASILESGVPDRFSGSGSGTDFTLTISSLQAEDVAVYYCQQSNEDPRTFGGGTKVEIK
-0.01

// corrected association response lookup, key: IgG1-CD134-GBR830 (antibody, INN chains, looked up, V domains shown, IgG1) VH: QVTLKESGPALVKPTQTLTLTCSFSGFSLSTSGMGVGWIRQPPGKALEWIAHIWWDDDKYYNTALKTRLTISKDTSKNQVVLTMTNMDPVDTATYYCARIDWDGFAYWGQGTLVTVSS VL: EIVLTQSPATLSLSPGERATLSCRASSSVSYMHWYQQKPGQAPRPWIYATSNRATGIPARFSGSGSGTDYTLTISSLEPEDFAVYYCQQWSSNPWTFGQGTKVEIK
0.33
